src = patent US11053204B2

test system: wheat (winter wheat, Triticum aestivum); experiment: Test C postemergence, plant response rating; type: in vivo; details: 31 g ai/ha, scale 0 to 100
Answer each item with its documented Plant response rating, Wheat.

Before answering, review these 2 worked examples.
FC(F)(F)CCCCc1c(Br)cccc1Oc1ncc(Cl)cn1 [Compound 138]: 5
N#Cc1cccc(Oc2ncc(Cl)cn2)c1COCCC(F)(F)F [Compound 80]: 0

Batch request: Plant response rating, Wheat for each of the following compounds.
1. N#CCCOC(=O)c1c(Br)cccc1Oc1ncc(Cl)cn1 [Compound 7]
2. O=C(CCC(F)(F)C(F)(F)F)c1c(Br)cccc1Oc1ncc(Cl)cn1 [Compound 110]

0
5
